Target: TYK2 (Homo sapiens (Human))
Sequence (P29597 897-1176): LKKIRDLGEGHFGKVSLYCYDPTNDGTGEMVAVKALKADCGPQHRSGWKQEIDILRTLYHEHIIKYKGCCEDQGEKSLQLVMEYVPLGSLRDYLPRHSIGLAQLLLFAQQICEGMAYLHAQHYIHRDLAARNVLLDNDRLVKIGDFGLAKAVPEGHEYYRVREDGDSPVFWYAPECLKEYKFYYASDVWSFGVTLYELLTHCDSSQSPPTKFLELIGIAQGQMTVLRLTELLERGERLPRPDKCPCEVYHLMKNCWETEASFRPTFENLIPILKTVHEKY
Assay: JAK Caliper Enzyme Assay at 1 mM ATP, TYK2
Type: biochemical
Conditions: JAK Caliper enzyme assay
// values below are reported log10 IC50
The common logarithm of IC50 in nM is what is listed.

compound: Cc1nc(-c2cc(-c3cnn([C@]4(CC#N)C[C@@H](C#N)C4)n3)c3cccnc3c2)ccc1O
tested_on: TYK2 (Homo sapiens (Human))
log10 IC50: 2.15
--
compound: N#CC[C@]1(n2ncc(-c3cc(-c4cnc5ncccn45)cc4ncccc34)n2)C[C@H](C#N)C1
tested_on: TYK2 (Homo sapiens (Human))
log10 IC50: 3.19
--
compound: CS(=O)(=O)N1CC(CC#N)(n2ncc(-c3cc(-c4c[nH]c5nccc-5c4)cc4ncccc34)n2)C1
tested_on: TYK2 (Homo sapiens (Human))
log10 IC50: 3.04

Suppose we examine the compound N#CCC1(n2ncc(-c3cc(-c4ccc(C(=O)O)cc4)cc4ncccc34)n2)CC(C#N)C1 (stereo not drawn) ; what log10 IC50 value has been reported? 1.88

Again, but for Cc1nc(-c2cc(-c3cnn([C@]4(CC#N)C[C@H](C#N)C4)n3)c3cccnc3c2)ccc1CCO 1.54

Can you handle Cc1ncc(-c2cc(-c3cnn([C@]4(CC#N)C[C@H](C#N)C4)c3)n3ccnc3c2)[nH]1 next? 1.73

Again, but for COc1nc(-c2cc(-c3cnn([C@]4(CC#N)C[C@@H](C#N)C4)n3)c3cccnc3c2)cnc1N 3.32
